- experiment: physchem
- test_conditions: octanol/buffer, pH 7.4
outcome_measure: logD
Give the value as a plain number.

C[C@H](Nc1c(C(N)=O)cnc2ccc(-c3cccnc3)cc12)c1ccn(C)n1 | 2.5
NC(=O)c1cnc2cc(F)c(-c3cccnc3)cc2c1NC1CCOCC1 | 2.1
COCc1ccc(-c2cc3c(N[C@@H](C)c4nn(C)cc4F)c(C(N)=O)cnc3cc2F)cn1 | 3
C[C@@H](Nc1c(C(N)=O)cnc2ccc(-c3cccnc3)cc12)C1CCOCC1 | 2.3

Now for another entry.
Challenge: Look up logD: C[C@@H]1CN(CC(=O)Nc2ccc3c(c2)Cc2cccc(-c4cc(=O)cc(N5CCOCC5)o4)c2S3)C[C@H](C)O1
Response given: 3.6

====

- assayed_target: Serine/threonine-protein kinase ATR (Homo sapiens)
- experiment: Inhibition of ATR in human HT-29 cells assessed as reduction in Chk1 phosphorylation at Ser-345 residue after 60 mins in presence of 4-nitroquinoline-1-oxide by Hoechst 33258 staining based plate reader analysis
- Assay type: cell-based
pIC50: −log10 of the molar value.
// pIC50 lookup, one value per entry

Challenge: Look up pIC50: NC(=O)c1cnc2ccc(-c3cccnc3)cc2c1SC1CCCC1
Response given: < 4.64

Challenge: For NC(=O)c1cnc2c(Cl)cc(-c3cccnc3)cc2c1NC1CCOCC1 then?
Response given: < 4.52

Challenge: For NC(=O)c1cnc2cc(F)c(-c3cccnc3)cc2c1NC1CCOCC1 then?
Response given: < 4.52

Challenge: For CCC(CC)CNc1c(C(N)=O)cnc2ccc(-c3ccc(CS(C)(=O)=O)nc3)cc12 then?
Response given: < 4.52

Challenge: For COCc1ccc(-c2cc3c(N[C@@H](C)c4ccn(C)n4)c(C(N)=O)cnc3cc2F)c(F)n1 then?
Response given: < 4.52

====

- experiment: in vitro
- test_conditions: human, hepatocytes
outcome_measure: hepatocyte CLint at 1.5 h

NC(=O)c1cnc2c(Cl)cc(-c3cccnc3)cc2c1NC1CCOCC1 | < 1 µL/min/1e6 cells
CCC(CC)CNc1c(C(N)=O)cnc2ccc(-c3ccc(COC)nc3)cc12 | < 6.8 µL/min/1e6 cells
NC(=O)c1cnc2ccc(-c3cccnc3)c(F)c2c1NC1CCOCC1 | < 3 µL/min/1e6 cells
COCc1ccc(-c2cc3c(N[C@@H](C)c4ccn(C)n4)c(C(N)=O)cnc3cc2F)cn1 | < 1.5 µL/min/1e6 cells
NC(=O)c1cnc2ccc(-c3cccnc3)cc2c1NC1CCOCC1 | < 4.2 µL/min/1e6 cells

Challenge: Look up hepatocyte CLint at 1.5 h: COCc1ccc(-c2ccc3ncc(C(N)=O)c(N[C@@H](C)C4CCOCC4)c3c2)cn1
Response given: < 2.6 µL/min/1e6 cells

====

- assayed_target: Serine/threonine-protein kinase mTOR (Homo sapiens, UniProt P42345)
- experiment: Inhibition of C-terminal FLAG-tagged recombinant mTOR (1362 to 2549 residues) (unknown origin) using Biotin-Ahx-Lys-Lys-Ala-Asn-Gln-Val-Phe-Leu-Gly-Phe-Thr-Tyr-Val-Ala-Pro-Ser-Val-Leu-Glu-Ser-Val-Lys-Glu-NH2 as substrate after 90 mins by AlphaScreen assay
// pIC50 lookup, one value per entry
The read-out pIC50 is expressed as -log10 of concentration in moles per litre.

Observe how each entry below is paired with its result.
C[C@@H](Nc1c(C(N)=O)cnc2ccc(C#N)cc12)c1ccc(Cl)cc1 | 6.07
O=c1cc(-c2cccc3c2Sc2ccccc2S3)oc(N2CCOCC2)c1 | 5.25
C[C@@H](Nc1c(C(N)=O)cnc2ccc(-c3cccnc3)cc12)c1ccc(Cl)cc1 | 6.74
C[C@@H]1CN(CC(=O)Nc2ccc3c(c2)Cc2cccc(-c4cc(=O)cc(N5CCOCC5)o4)c2S3)C[C@H](C)O1 | 5.18
COc1cc2ncnc(-n3nc(-c4ccccn4)nc3N)c2cc1OC | 5.34

Now for another entry.
Challenge: Look up pIC50: COCc1ccc(-c2cc3c(N[C@@H](C)c4ccn(C)n4)c(C(N)=O)cnc3cc2F)cn1
Response given: 5.83

====

// logD lookup, one value per entry
- experiment: physchem
- test_conditions: octanol/buffer, pH 7.4
Give the value as a plain number.

Observe how each entry below is paired with its result.
C[C@H](Nc1c(C(N)=O)cnc2ccc(-c3cccnc3)cc12)C1CCOCC1 | 2.5
CCC(CC)CNc1c(C(N)=O)cnc2ccc(-c3ccc(CS(C)(=O)=O)nc3)cc12 | 3.1
O=c1cc(-c2cccc3c2Sc2ccccc2S3)oc(N2CCOCC2)c1 | 4
NC(=O)c1cnc2ccc(-c3cccnc3)cc2c1NC1CCOCC1 | 1.9
NC(=O)c1cnc2c(Cl)cc(-c3cccnc3)cc2c1NC1CCOCC1 | 2.1
NC(=O)c1cnc2cc(Cl)c(-c3cccnc3)cc2c1NC1CCOCC1 | 2.7

Challenge: Look up logD: CCC(CC)CNc1c(C(N)=O)cnc2ccc(-c3cccnc3)cc12
Response given: 4

Challenge: For CCC(CC)CNc1c(C(N)=O)cnc2ccc(-c3ccc(CS(C)(=O)=O)cc3)cc12 then?
Response given: 3.5

====

- assayed_target: Serine-protein kinase ATM (Homo sapiens, UniProt Q13315)
- experiment: Inhibition of ATM phosphorylation at Ser-1981 residue in human HT-29 cells incubated for 1 hr followed by X-ray irradiation by Hoechst staining based fluorescence plate reader analysis
- Format: cell-based
Binary label based on IC50 with cut-off 900 nM: below gives Criterion met, not below gives Criterion not met.

Challenge: Please determine if NC(=O)c1cnc2ccc(-c3cccnc3)c(F)c2c1NC1CCOCC1 is below 900 nM in terms of IC50.
Response given: Criterion not met

Challenge: For CNC(=O)c1cnc2ccc(-c3cccnc3)cc2c1N[C@H](C)c1ccc(Cl)cc1 then?
Response given: Criterion not met

Challenge: For CCC(CC)COc1c(C(N)=O)cnc2ccc(-c3cccnc3)cc12 then?
Response given: Criterion not met

====

- experiment: in vitro
- test_conditions: rat, hepatocytes
outcome_measure: hepatocyte CLint at 1.5 h (µL/min/1e6 cells)
Give your result in µL/min/1e6 cells as a bare value.

CCC(CC)CNc1c(C(N)=O)cnc2ccc(-c3ccc(COC)cc3)cc12 | 76
COCc1ccc(-c2cc3c(N[C@@H](C)c4nn(C)cc4F)c(C(N)=O)cnc3cc2F)cn1 | 4.8
C[C@@H](Nc1c(C(N)=O)cnc2ccc(-c3cccnc3)cc12)c1ccn(C)n1 | 120

Challenge: Look up hepatocyte CLint at 1.5 h: COCc1ccc(-c2cc3c(N[C@@H](C)c4ccn(C)n4)c(C(N)=O)cnc3cc2F)cn1
Response given: 5.3

Challenge: For CCC(CC)CNc1c(C(N)=O)cnc2ccc(-c3ccncc3)cc12 then?
Response given: 76

Challenge: For CCC(CC)CNc1c(C(N)=O)cnc2ccc(-c3ccc(COC)nc3)cc12 then?
Response given: 110

Challenge: For C[C@@H]1CN(CC(=O)Nc2ccc3c(c2)Cc2cccc(-c4cc(=O)cc(N5CCOCC5)o4)c2S3)C[C@H](C)O1 then?
Response given: 22

====

- assayed_target: Serine/threonine-protein kinase ATR (Homo sapiens, UniProt Q13535)
- Sequence (Q13535 whole entry): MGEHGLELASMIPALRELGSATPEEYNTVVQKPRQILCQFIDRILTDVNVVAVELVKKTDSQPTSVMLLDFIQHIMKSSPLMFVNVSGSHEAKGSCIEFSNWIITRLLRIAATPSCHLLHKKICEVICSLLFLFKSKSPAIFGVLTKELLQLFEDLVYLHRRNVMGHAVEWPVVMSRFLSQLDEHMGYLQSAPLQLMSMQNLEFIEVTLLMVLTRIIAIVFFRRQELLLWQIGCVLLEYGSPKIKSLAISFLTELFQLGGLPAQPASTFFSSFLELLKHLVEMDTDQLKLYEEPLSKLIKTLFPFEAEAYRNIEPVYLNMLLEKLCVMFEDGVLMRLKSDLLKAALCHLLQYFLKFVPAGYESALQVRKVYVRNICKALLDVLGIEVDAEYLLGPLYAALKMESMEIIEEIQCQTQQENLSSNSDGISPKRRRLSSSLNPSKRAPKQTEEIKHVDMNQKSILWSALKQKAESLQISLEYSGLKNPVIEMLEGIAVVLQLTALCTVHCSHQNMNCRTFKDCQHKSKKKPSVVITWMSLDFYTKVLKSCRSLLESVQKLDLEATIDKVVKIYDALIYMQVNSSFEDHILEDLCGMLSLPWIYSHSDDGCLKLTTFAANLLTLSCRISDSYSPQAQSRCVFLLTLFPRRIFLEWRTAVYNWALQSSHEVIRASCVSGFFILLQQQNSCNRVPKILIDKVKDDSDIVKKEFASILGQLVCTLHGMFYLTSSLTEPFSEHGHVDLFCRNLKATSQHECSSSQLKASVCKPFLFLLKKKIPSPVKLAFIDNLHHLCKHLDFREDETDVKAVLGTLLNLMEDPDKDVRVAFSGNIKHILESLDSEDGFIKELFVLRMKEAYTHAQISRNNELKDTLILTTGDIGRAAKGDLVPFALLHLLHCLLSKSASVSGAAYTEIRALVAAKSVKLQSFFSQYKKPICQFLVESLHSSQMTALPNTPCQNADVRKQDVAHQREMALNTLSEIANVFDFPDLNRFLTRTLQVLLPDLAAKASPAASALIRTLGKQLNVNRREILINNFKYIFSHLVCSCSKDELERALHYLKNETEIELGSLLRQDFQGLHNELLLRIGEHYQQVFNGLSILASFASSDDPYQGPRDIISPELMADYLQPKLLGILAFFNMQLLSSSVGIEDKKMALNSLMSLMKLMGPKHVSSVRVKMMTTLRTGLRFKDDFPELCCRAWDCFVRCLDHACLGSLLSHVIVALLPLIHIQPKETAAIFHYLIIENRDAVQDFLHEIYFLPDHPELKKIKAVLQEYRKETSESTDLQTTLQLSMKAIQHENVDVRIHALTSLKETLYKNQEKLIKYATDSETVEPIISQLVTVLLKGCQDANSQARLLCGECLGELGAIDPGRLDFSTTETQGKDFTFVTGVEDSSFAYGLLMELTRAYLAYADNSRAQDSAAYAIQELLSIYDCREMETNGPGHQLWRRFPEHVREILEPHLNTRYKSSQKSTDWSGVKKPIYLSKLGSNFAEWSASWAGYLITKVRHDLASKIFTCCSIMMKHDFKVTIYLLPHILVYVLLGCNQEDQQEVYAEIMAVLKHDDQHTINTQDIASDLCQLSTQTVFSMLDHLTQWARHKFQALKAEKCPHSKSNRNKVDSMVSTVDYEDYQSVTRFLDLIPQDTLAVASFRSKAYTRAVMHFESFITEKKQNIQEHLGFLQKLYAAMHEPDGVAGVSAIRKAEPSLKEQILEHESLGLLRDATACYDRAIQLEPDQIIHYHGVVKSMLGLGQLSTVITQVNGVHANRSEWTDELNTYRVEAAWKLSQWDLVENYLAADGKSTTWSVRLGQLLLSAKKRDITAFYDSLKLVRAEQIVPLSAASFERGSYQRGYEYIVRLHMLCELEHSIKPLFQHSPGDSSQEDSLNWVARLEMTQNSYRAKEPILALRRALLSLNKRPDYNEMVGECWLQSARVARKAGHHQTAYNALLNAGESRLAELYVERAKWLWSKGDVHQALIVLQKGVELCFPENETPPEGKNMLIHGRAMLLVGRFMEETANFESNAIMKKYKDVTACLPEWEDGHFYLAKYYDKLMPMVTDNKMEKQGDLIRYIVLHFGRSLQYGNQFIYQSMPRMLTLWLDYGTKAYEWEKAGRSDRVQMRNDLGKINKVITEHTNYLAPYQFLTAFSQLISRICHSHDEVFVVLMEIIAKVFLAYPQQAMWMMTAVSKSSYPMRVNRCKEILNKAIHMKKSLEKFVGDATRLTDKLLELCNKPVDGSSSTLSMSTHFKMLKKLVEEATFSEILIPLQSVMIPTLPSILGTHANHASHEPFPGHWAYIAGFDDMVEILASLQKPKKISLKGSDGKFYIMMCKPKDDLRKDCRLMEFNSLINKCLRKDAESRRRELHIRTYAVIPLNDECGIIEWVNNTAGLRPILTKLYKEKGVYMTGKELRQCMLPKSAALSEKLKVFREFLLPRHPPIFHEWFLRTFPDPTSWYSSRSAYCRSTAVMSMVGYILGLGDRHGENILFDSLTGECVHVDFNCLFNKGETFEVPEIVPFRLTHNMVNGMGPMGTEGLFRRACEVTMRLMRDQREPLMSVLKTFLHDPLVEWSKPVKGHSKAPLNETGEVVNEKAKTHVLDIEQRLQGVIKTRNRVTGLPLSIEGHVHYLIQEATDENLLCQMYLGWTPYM
- experiment: Inhibition of ATR in human HT-29 cells assessed as reduction in Chk1 phosphorylation at Ser-345 residue after 60 mins in presence of 4-nitroquinoline-1-oxide by Hoechst 33258 staining based plate reader analysis
// IC50 lookup, one value per entry

Observe how each entry below is paired with its result.
CCC(CC)CNc1c(C(N)=O)cnc2ccc(-c3ccc(CS(C)(=O)=O)cc3)cc12 | > 30 µM
CCC(CC)CNc1c(C(N)=O)cnc2ccc(-c3ccnnc3)cc12 | 2.6 µM
COCc1ccc(-c2cc3c(N[C@@H](C)C4CCOCC4)c(C(N)=O)cnc3cc2F)cn1 | > 30 µM
NC(=O)c1cnc2ccc(-c3cccnc3)cc2c1NC1CCCCC1 | 3.2 µM
C[C@H](Nc1c(C(N)=O)cnc2ccc(-c3cccnc3)cc12)C1CCOCC1 | > 14 µM
CCC(CC)CNc1c(C(N)=O)cnc2ccc(-c3ccc(COC)nc3)cc12 | > 30 µM
CCC(CC)CNc1c(C(N)=O)c(C)nc2ccc(-c3cccnc3)cc12 | > 30 µM
CCC(CC)CNc1c(C(N)=O)cnc2c(C)cc(-c3cccnc3)cc12 | > 30 µM

Challenge: Look up IC50: NC(=O)c1cnc2ccc(-c3cccnc3)cc2c1NC1CCOCC1
Response given: 3.1 µM

====

// logD lookup, one value per entry
- experiment: physchem
- test_conditions: octanol/buffer, pH 7.4

C[C@@H](Nc1c(C(N)=O)cnc2ccc(-c3cccnc3)cc12)c1ccc(Cl)cc1 | > 4.3
NC(=O)c1cnc2ccc(-c3cccnc3)cc2c1NCC1CCCCC1 | > 4.3

Challenge: Look up logD: CCC(CC)COc1c(C(N)=O)cnc2ccc(-c3cccnc3)cc12
Response given: > 4.3

====

- experiment: physchem
- test_conditions: octanol/buffer, pH 7.4
outcome_measure: logD
Give the value as a plain number.

Observe how each entry below is paired with its result.
C[C@@H](Nc1c(C(N)=O)cnc2ccc(-c3cccnc3)cc12)c1ccn(C)n1 | 2.3
NC(=O)c1cnc2ccc(-c3cccnc3)cc2c1NC1CCCCC1 | 3.8
COCc1ccc(-c2ccc3ncc(C(N)=O)c(N[C@@H](C)C4CCOCC4)c3c2)cn1 | 2.5
C[C@@H](Nc1c(C(N)=O)cnc2ccc(C#N)cc12)c1ccc(Cl)cc1 | 3.5

Now for another entry.
Challenge: Look up logD: CCC(CC)CNc1c(C(N)=O)cnc2ccc(-c3ccc(COC)cc3)cc12
Response given: 4.1
